Property: log10 Ki; scope: individual compounds
- test system: 5-hydroxytryptamine receptor 6 (Homo sapiens)
- Sequence (P50406 whole entry): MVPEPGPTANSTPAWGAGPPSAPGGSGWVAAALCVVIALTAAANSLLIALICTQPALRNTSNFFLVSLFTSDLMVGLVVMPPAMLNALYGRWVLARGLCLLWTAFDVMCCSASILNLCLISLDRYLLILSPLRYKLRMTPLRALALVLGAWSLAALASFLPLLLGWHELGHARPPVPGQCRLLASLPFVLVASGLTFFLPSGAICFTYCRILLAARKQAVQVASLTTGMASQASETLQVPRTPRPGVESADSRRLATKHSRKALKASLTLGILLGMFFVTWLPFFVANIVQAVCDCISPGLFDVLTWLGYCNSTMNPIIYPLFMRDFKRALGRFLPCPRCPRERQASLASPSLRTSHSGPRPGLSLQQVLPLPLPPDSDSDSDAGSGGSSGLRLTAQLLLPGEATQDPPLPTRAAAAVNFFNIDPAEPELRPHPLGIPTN
Heads up: the numbers are on a log10 scale; they represent Ki in nM.

Illustrative cases are given below, each with its answer.
[
  {
    "smiles notation": "COc1ccc2[nH]c(-c3ccccc3)c(CCN(C)C)c2c1",
    "recorded metric": "log10 Ki",
    "reported": 1.73
  },
  {
    "smiles notation": "CCc1[nH]c2ccc(OC)cc2c1CCN(C)C",
    "recorded metric": "log10 Ki",
    "reported": 1.72
  },
  {
    "smiles notation": "CCn1cc(CCN(C)C)c2cc(OC)ccc21",
    "recorded metric": "log10 Ki",
    "reported": 2.38
  },
  {
    "smiles notation": "COc1ccc2[nH]c(C)c(CCN)c2c1",
    "recorded metric": "log10 Ki",
    "reported": 1.99
  }
]

Ask: Value lookup for log10 Ki; key = COc1ccc2[nH]c(C)c(CCN(C)C)c2c1
Result: 1.90

Ask: Moving on to the next compound: Cc1[nH]c2ccccc2c1CCN(C)C
Result: 2.48

Ask: Moving on to the next compound: COc1ccc2c(c1)c(CCN(C)C)cn2C
Result: 2.71

Ask: Moving on to the next compound: CCCn1cc(CCN(C)C)c2cc(OC)ccc21
Result: 2.30

Ask: Moving on to the next compound: COc1ccc2c(c1)c(CCN(C)C)cn2C(C)C
Result: 2.11

Ask: Moving on to the next compound: Cc1[nH]c2ccc(O)cc2c1CCN
Result: 1.66

Hello, the source for this data is ChEMBL document CHEMBL1133711, in case you need it.
